- protocolDescription: Antagonistic activity was measured by the inhibition of Gamma-aminobutyric acid type B receptor binding to rat brain synaptosomes
- Assay type: subcellular
valueType: pIC50
Answers are plain numbers, as −log10 of the molar value.

CC[C@@H]1CO[C@@H](CC(=O)O)CN1: 5.00
CC1(C)COC(CC(=O)O)CN1 (racemic): 5.52
CC1(C)CO[C@@H](CC(=O)O)CN1: 5.96

Give pIC50 for all compounds that follow.
1. O=C(O)CC1CNC2(CC2)CO1 (racemic)
2. O=C(O)CC1CNC2(CCCC2)CO1 (racemic)

Response:
4.43
4.96

Give pIC50 for all compounds that follow.
1. CC1(CO)COC(CC(=O)O)CN1 (racemic; form 2)
2. CC1(CO)COC(CC(=O)O)CN1 (racemic; form 1)
3. CCC1(CO)COC(CC(=O)O)CN1 (racemic; form 2)

Response:
1: 5.30; 2: 5.70; 3: 4.00

Consider CCOC(OCC)P(=O)(O)CCCN . Its measured pIC50 is 4.21

---

- protocolDescription: Antagonistic activity was measured by the inhibition of Gamma-aminobutyric acid type B receptor binding to rat brain synaptosomes
- Type: subcellular
valueType: pIC50
One number for each entry, as −log10 of the molar value.

CCC1(CO)COC(CC(=O)O)CN1 (racemic; form 1): 4.72
CC1COC(CC(=O)O)CN1 (racemic; form 2): 5.05

Consider CC1COC(CC(=O)O)CN1 (racemic; form 1) . Its measured pIC50 is 4.43

---

- protocolDescription: Antagonistic activity was measured by the inhibition of Gamma-aminobutyric acid type B receptor binding to rat brain synaptosomes
- Format: subcellular
valueType: IC50

CC1(C)COC(CC(=O)O)CN1 (stereo in doubt; 24): > 100 µM

Give IC50 for all molecules that follow.
1. CC[C@@H]1CO[C@H](CC(=O)O)CN1
2. CC[C@H]1CO[C@H](CC(=O)O)CN1

Response:
1. > 100 µM
2. > 100 µM

Consider O=C(O)CC1CNCCO1 (centres undefined) . Its measured IC50 is > 100 µM

Value source: ChEMBL document CHEMBL1129107
